- Test name: Octanol-buffer partition coefficient, log D of the compound at pH 7.4 after 30 mins by shake-flask method
- Assay type: physicochemical
Rule for this label: Criterion met means logD at 0.5 h is less than 2; Criterion not met means logD at 0.5 h is at least 2.

Example entries and their recorded answers appear below.
Compound: COc1ccc(-n2cc3nc(-c4ccccc4C)n(CC4CCCN(C(C)C)C4)c(=O)c3n2)cc1 (racemic)
Classification: Criterion not met
--
Compound: COCCN1CCC[C@@H](Cn2c(-c3ccccc3C)nc3cc(-c4ccc(Cl)cc4)sc3c2=O)C1
Classification: Criterion not met
--
Compound: COCCN1CCC[C@@H](Cn2c(-c3ccccc3C)nc3nc(-c4ccc(Cl)cc4)sc3c2=O)C1
Classification: Criterion not met
--
Compound: Cc1ncccc1-c1nc2cn(-c3cccc(OC(C)C)c3)nc2c(=O)n1C[C@H]1CCCN(C[C@H]2CCCO2)C1
Classification: Criterion not met
--
Compound: Cc1ncccc1-c1nc2cn(-c3ccc(C#N)cc3)nc2c(=O)n1CC1CCCN(C2COC2)C1 (racemic)
Classification: Criterion met
--
Compound: Cc1ccccc1-c1nc2cn(-c3ccc(F)cc3)nc2c(=O)n1CC1CCCN(C(C)C)C1 (racemic)
Classification: Criterion not met

Query block: State whether 2 exceeds logD at 0.5 h recorded for Cc1ncccc1-c1nc2cn(-c3cccc(OC(F)F)c3)nc2c(=O)n1C[C@H]1CCCN(C[C@H]2CCCO2)C1 .
Result block: Criterion not met

Query block: One more compound: COc1ccc(-n2cc3nc(-c4cccnc4C)n(C[C@H]4CCCN(C[C@H]5CCCO5)C4)c(=O)c3n2)cc1
Result block: Criterion met

Query block: Then this compound: COc1cccc(-n2cc3nc(CC(C)C)n(C[C@H]4CCCN(C[C@H]5CCCO5)C4)c(=O)c3n2)c1
Result block: Criterion not met

Query block: // same read-out, input: COCCN1CCC[C@@H](Cn2c(-c3ccccc3C)nc3cn(-c4ccc(Cl)cc4)nc3c2=O)C1
Result block: Criterion not met

###

- Test name: Intrinsic clearance in human liver microsomes
- Assay type: ADME
- Conditions used: read-out: CLH
Property label: microsomal CLint (µL/min/mg)
Please reply with the bare figure in µL/min/mg and do not write the unit itself.

Observe how each entry below is paired with its result.
Chemical string: COc1cccc(-n2cc3nc(CC(C)C)n(C[C@H]4CCCN(C[C@H]5CCCO5)C4)c(=O)c3n2)c1
microsomal CLint [µL/min/mg]: 60

Chemical string: Cc1ncccc1-c1nc2cn(-c3ccccc3)nc2c(=O)n1C[C@H]1CCCN(C[C@H]2CCCO2)C1
microsomal CLint [µL/min/mg]: 15

Chemical string: CCCOc1cccc(-n2cc3nc(-c4cccnc4C)n(C[C@H]4CCCN(C[C@H]5CCCO5)C4)c(=O)c3n2)c1
microsomal CLint [µL/min/mg]: 67

Chemical string: COc1ccc(-n2cc3nc(-c4cccnc4C)n(C[C@H]4CCCN(C[C@H]5CCCO5)C4)c(=O)c3n2)cc1
microsomal CLint [µL/min/mg]: 21

Query block: Any idea what microsomal CLint was measured for COc1cccc(-n2cc3nc(C)n(C[C@H]4CCCN(C[C@H]5CCCO5)C4)c(=O)c3n2)c1 ?
Result block: 16

###

- Test name: Intrinsic clearance in human liver microsomes
- Type: ADME
- Conditions used: read-out: CLH
Reported microsomal CLint values are given for each entry in this list.
Write down the numeric answer in µL/min/mg and omit the unit.

Query block: Which measured microsomal CLint value corresponds to Cc1ncccc1-c1nc2cn(-c3cccc(OC(F)F)c3)nc2c(=O)n1C[C@H]1CCCN(C[C@H]2CCCO2)C1 ?
Result block: 33

Query block: Same question, Cc1ncccc1-c1nc2cn(-c3cccc(OC(C)C)c3)nc2c(=O)n1C[C@H]1CCCN(C[C@H]2CCCO2)C1 this time
Result block: 51

Query block: Could you do the same for COc1cccc(-n2cc3nc(-c4cccnc4C)n(C[C@H]4CCCN(C[C@H]5CCCO5)C4)c(=O)c3n2)c1 , please?
Result block: 17

Query block: Another compound to look at: CCOc1cccc(-n2cc3nc(-c4cccnc4C)n(C[C@H]4CCCN(C[C@H]5CCCO5)C4)c(=O)c3n2)c1
Result block: 30

###

- Test name: Octanol-buffer partition coefficient, log D of the compound at pH 7.4 after 30 mins by shake-flask method
- Assay type: physicochemical
Property label: logD at 0.5 h

Reference set (3 entries):
Chemical string: COCCN1CCC[C@H](Cn2c(-c3cccnc3C)nc3cn(C4CCCCC4)nc3c2=O)C1
logD at 0.5 h: 1.4

Chemical string: COCCN1CCC[C@H](Cn2c(-c3cccnc3C)nc3cn(-c4cccc(OC)c4)nc3c2=O)C1
logD at 0.5 h: 1.3

Chemical string: Cc1ccccc1-c1nc2ccc(-c3ccc(Cl)cc3)cc2c(=O)n1C[C@H]1CCCN(C(C)C)C1
logD at 0.5 h: > 4.3

Query block: So what's the measured logD at 0.5 h for this one? CCCOc1cccc(-n2cc3nc(-c4cccnc4C)n(C[C@H]4CCCN(C[C@H]5CCCO5)C4)c(=O)c3n2)c1
Result block: 2.9

###

- Test name: Dissociation constant, pKa of the compound
- Type: physicochemical
Tick y if pKa is 9 or greater. Tick n if pKa is less than 9.

# count of solved cases: 3
Compound: COCCN1CCCC(Cn2c(-c3cccnc3C)nc3cn(-c4ccc(C#N)cc4)nc3c2=O)C1 (racemic)
Classification: n
--
Compound: COCCN1CCC[C@@H](Cn2c(-c3ccccc3C)nc3cc(-c4ccc(Cl)cc4)sc3c2=O)C1
Classification: n
--
Compound: Cc1ccccc1-c1nc2cn(-c3ccc(F)cc3)nc2c(=O)n1CC1CCCN(C(C)C)C1 (racemic)
Classification: y

Query block: Hi team, for Cc1ccccc1-c1nc2cn(-c3ccc(C#N)cc3)nc2c(=O)n1CC1CCCN(C(C)C)C1 (racemic) , is the recorded pKa at or above 9?
Result block: y

Query block: Follow-up entry: Cc1ccccc1-c1nc2cn(-c3cccc(C#N)c3)nc2c(=O)n1CC1CCCN(C(C)C)C1 (racemic)
Result block: y

###

- Test name: Lipophilicity, log D of the compound by HPLC analysis
- Format: physicochemical
Entries whose logD is below 5 take 1.0; entries at or above 5 take 0.0.

Use the examples below as a reference point.
Compound: Cc1ccccc1-c1nc2cc(-c3ccc(Cl)cc3)sc2c(=O)n1CC1CCCN(C(C)C)C1 (racemic)
Classification: 1.0

Compound: Cc1ccccc1-c1nc2cn(-c3ccc(Cl)cc3)nc2c(=O)n1CC1CCCN(C(C)C)C1 (racemic)
Classification: 1.0

Compound: COCCN1CCC[C@@H](Cn2c(-c3ccccc3C)nc3cn(-c4ccc(Cl)cc4)nc3c2=O)C1
Classification: 1.0

Shift focus to the following entry.
Query block: # TODO verify logD < 5 strictly for this compound: COCCN1CCC[C@@H](Cn2c(-c3ccccc3C)nc3cc(-c4ccc(Cl)cc4)sc3c2=O)C1
Result block: 0.0

###

# solubility at 24 h values compiled below
- Test name: Aqueous solubility of the compound in phosphate buffer at pH 7.4 after 24 hrs by LC-UV analysis
- Assay type: physicochemical

The examples below pair each entry with its known result.
Chemical string: COc1cccc(-n2cc3nc(-c4cccnc4C)n(C[C@H]4CCCN(C[C@H]5CCCO5)C4)c(=O)c3n2)c1
Property label: solubility at 24 h
Result: > 1500 µM
--
Chemical string: COc1cccc(-n2cc3nc(-c4cccnc4C)n(C[C@H]4CCCN(C(C)C)C4)c(=O)c3n2)c1
Property label: solubility at 24 h
Result: > 2700 µM

Moving on to the next molecule.
Query block: Please look up its solubility at 24 h: Cc1ccccc1-c1nc2ccc(-c3ccc(Cl)cc3)cc2c(=O)n1C[C@H]1CCCN(C(C)C)C1
Result block: 45 µM

###

- Test name: Plasma concentration in mouse at 20 mg/kg, po measured at 1 hr
- Format: ADME, organism-based
- Set-up: dose 20 mg/kg, route oral
Property label: concentration at 1 h

Query block: For the compound COc1cccc(-n2cc3nc(-c4cccnc4C)n(C[C@H]4CCCN(C[C@H]5CCCO5)C4)c(=O)c3n2)c1 , what concentration at 1 h is on record?
Result block: 1200 nM

###

- Test name: Octanol-buffer partition coefficient, log D of the compound at pH 7.4 after 30 mins by shake-flask method
- Format: physicochemical
Note to self: values exactly at 2 are yes (1). So logD at 0.5 h at or above 2 is yes (1), below is no (0).

Query block: Dear colleague, could you confirm whether COc1cccc(-n2cc3nc(-c4ccccc4C)n(CC4CCCN(C(C)C)C4)c(=O)c3n2)c1 (racemic) has logD at 0.5 h at or above 2?
Result block: yes (1)

###

# pKa annotations
- Test name: Dissociation constant, pKa of the compound
- Type: physicochemical
Please give only the number in your answer, with no unit.

Compound: COCCN1CCC[C@@H](Cn2c(-c3ccccc3C)nc3nc(-c4ccc(Cl)cc4)sc3c2=O)C1
Property label: pKa
Numeric value: 9.2

Compound: COc1cccc(-n2cc3nc(-c4cccnc4C)n(C[C@H]4CCCN(C(C)C)C4)c(=O)c3n2)c1
Property label: pKa
Numeric value: 9.7

Compound: COCCN1CCC[C@H](Cn2c(-c3cccnc3C)nc3cn(-c4cccc(OC)c4)nc3c2=O)C1
Property label: pKa
Numeric value: 8.4

Compound: Cc1ccccc1-c1nc2cn(-c3cccc(Cl)c3)nc2c(=O)n1CC1CCCN(C(C)C)C1 (racemic)
Property label: pKa
Numeric value: 9.8

Compound: COc1cccc(-n2cc3nc(-c4ccccc4C)n(CC4CCCN(C(C)C)C4)c(=O)c3n2)c1 (racemic)
Property label: pKa
Numeric value: 10

Query block: Recorded pKa for Cc1ncccc1-c1nc2cn(-c3ccc(C#N)cc3)nc2c(=O)n1CC1CCCN(C2COC2)C1 (racemic) , please?
Result block: 6.4

Query block: And the next one, COCCN1CCC[C@@H](Cn2c(-c3ccccc3C)nc3cn(-c4ccc(Cl)cc4)nc3c2=O)C1 ?
Result block: 8.5

Query block: Next up: Cc1ccccc1-c1nc2cn(-c3ccc(Cl)cc3)nc2c(=O)n1CC1CCCN(C(C)C)C1 (racemic)
Result block: 10

Query block: Another compound to look at: COc1ccc(-n2cc3nc(-c4ccccc4C)n(CC4CCCN(C(C)C)C4)c(=O)c3n2)cc1 (racemic)
Result block: 10
